# Assay Overview: inhibitors of E-selectin induction by TNFa, primary screen, imaging, HUVEC, immunofluorescence, MLSMR starter and 10KST1 sets (AID 487);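 for nuclei count: 100% = median nuclei count of all wells on the same plate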
# Details: HUVEC TNFalpha-induced E-selectin immunofluorescence imaging, at 2 µM; measured here: cell number, toxicity
Overview of reported nuclei count across a group of compounds:
Numeric only. Scale: %

CC(=O)OCc1c(COC(C)=O)[n+](=O)c2ccccc2n1[O-]: 156
COCCn1c(N)c(C(=O)NCC2CCCO2)c2nc3ccccc3nc21 (stereo not drawn): 106
COc1ccc(C(=O)N2CCC(N3CCN(c4ccccc4)CC3)CC2)cc1OC: 170
CC1(C)NC(=O)N(CC(O)Cn2nnc3ccccc32)C1=O (stereo not drawn): 122

Problem: Consider the compound `CC1(C)Cc2c(sc3c4nnnn4c4nnnn4c23)CO1` and give its measured nuclei count.
Result: 164

----------
# Assay Overview: DUSP6 inhibitors restoring Erk phosphorylation by chemical complementation, primary imaging in DUSP6-transfected HeLa (AID 609)
# Details: HeLa MKP-3 transfected, phospho-Erk imaging KS statistic; measured here: cell density z-score; at 10 µM; cells stimulated with TPA for 15 min
Property Measured: z-score

COc1ccccc1N1C(=O)C2ON(c3ccccc3)C(c3ccc(N(C)C)cc3)C2C1=O (stereo not given): -2.24

Problem: Consider the compound CN(C)CC(O)COc1ccc(C(C)(C)c2ccc(OCC(O)CN(C)C)cc2)cc1 (stereo not given) and give its measured z-score.
Result: -1.06

Problem: Consider the compound `Cc1ccc2[nH]c3c(N4CCCCCC4)ncnc3c2c1` and give its measured z-score.
Result: 1.13

Problem: Consider the compound Cc1nnc2n(Cc3ccccc3)c(=O)c3c4c(sc3n12)COC(C(C)C)C4 (stereo not given) and give its measured z-score.
Result: 0.665

Problem: Consider the compound CCCc1[nH]nc2c1C(c1cccc(OC)c1)C(C#N)=C(N)O2 (stereo not given) and give its measured z-score.
Result: -0.436

Problem: Consider the compound CN1C2C=C3C(C#N)=C(N)C(C#N)(C#N)[C@@H](c4ccsc4)[C@@H]3C1CC2 (stereo not given in full) and give its measured z-score.
Result: 1.76

----------
# Experimental System: Voltage-gated potassium channel subunit beta-2 (Rattus norvegicus) (UniProt P62483)
# Sequence (P62483 whole entry, looked up): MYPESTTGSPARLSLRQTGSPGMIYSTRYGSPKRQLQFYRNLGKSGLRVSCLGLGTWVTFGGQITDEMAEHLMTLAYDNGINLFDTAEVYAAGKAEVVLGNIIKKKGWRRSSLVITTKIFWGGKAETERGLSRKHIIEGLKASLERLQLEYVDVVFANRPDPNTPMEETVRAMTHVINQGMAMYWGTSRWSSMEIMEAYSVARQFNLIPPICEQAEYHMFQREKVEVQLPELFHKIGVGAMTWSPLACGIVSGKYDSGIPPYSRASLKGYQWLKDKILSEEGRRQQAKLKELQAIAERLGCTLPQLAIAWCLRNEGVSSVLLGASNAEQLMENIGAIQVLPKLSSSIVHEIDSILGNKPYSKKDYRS
# Assay Overview: KvBeta positive modulators, primary screen, biochemical, NADPH fluorescence (AID 623);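 note: fluorescence intensity change per second fitted from 20 to 320 s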
# Details: Recombinant KvBeta, NADPH fluorescence decrease slope, 10 min; at 10 µM; stronger effect = lower value
Property Measured: NADPH fluorescence slope
Reply with just the number.

Problem: Consider the molecule `COCCNc1oc(-c2ccc(C)cc2)nc1C#N` and give its measured NADPH fluorescence slope.
Result: -5.9e-05

Problem: Consider the molecule `CCOC(=O)N1CCN(/C=C(\C#N)c2nc3ccccc3s2)CC1` and give its measured NADPH fluorescence slope.
Result: -0.000116

Problem: Consider the molecule `O=C(CCC1CCCC1)N1CCC(N2CCN(c3ccccc3)CC2)CC1` and give its measured NADPH fluorescence slope.
Result: 4.6e-06

Problem: Consider the molecule COc1ccc(N(CN2C(=O)C3C4C=CC(C4)C3C2=O)C(=O)c2ccco2)cc1 (stereo unspecified) and give its measured NADPH fluorescence slope.
Result: -3.5e-05

Problem: Consider the molecule `COCCOC(=O)c1c(C)nc(SCC(=O)Nc2ccc(OC)cc2)c(C#N)c1-c1ccco1` and give its measured NADPH fluorescence slope.
Result: -2.9e-05

Problem: Consider the molecule `CC1(C)CNC(=O)c2sc(N3CCOCC3)nc2C1` and give its measured NADPH fluorescence slope.
Result: -4.4e-05

----------
# Assay Overview: inhibitors of TNFa-induced NFkB p65 translocation, primary screen, imaging, HUVEC, MLSMR starter and 10KST1 sets (AID 438);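 note: compound added about 3h40 before a 20 min TNFalpha stimulation; signal is the nuclear over cytoplasmic p65 intensity ratio per well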
# Details: HUVEC TNFa-induced p65 nuclear translocation; at 2 µM, stronger effect = higher value, 0% TNFa-plus-vehicle, 100% no-TNFa wells
Property Measured: inhibition (%)
Numeric only. Scale: %

Look over these answered cases.
O=C(O)c1ccccc1Nc1cccc(C(F)(F)F)c1: 3.3
c1ccc(SCc2nc3ccccc3[nH]2)nc1: -12.9
CCOc1cccc(-c2nnc3sc(-c4ccc(C)cc4)nn23)c1: -12

Problem: Consider the compound `CN1C(=O)C2(N=c3ccccc3=N2)c2ccccc21` and give its measured inhibition.
Result: -4.5

Problem: Consider the compound CCN(CC)CCCn1c(C)cc2c(c1=O)C(c1ccc(OC)c(OC)c1OC)C(C#N)=C(N)O2 (stereo not drawn) and give its measured inhibition.
Result: 13.1

Problem: Consider the compound `Cc1nc(NS(=O)(=O)c2ccccc2)sc1NC(=O)OCCN(C)C` and give its measured inhibition.
Result: -18.9

Problem: Consider the compound `CCC(c1c(C)n(C)n(-c2ccccc2)c1=O)c1c(C)n(C)n(-c2ccccc2)c1=O` and give its measured inhibition.
Result: -4.3

Problem: Consider the compound O=C1C2ON(c3ccccc3)C(c3ccncc3)C2C(=O)N1c1ccc(Br)cc1 (stereo not drawn) and give its measured inhibition.
Result: -2.3

Problem: Consider the compound `NCc1ccc(S(N)(=O)=O)cc1` and give its measured inhibition.
Result: -2.8

Problem: Consider the compound `CC(=O)OCC(=O)[C@@]1(O)CC[C@H]2[C@@H]3CCC4=CC(=O)CC[C@]4(C)[C@H]3[C@@H](O)C[C@@]21C` and give its measured inhibition.
Result: 2.9

----------
# Assay Overview: inhibitors of mutant huntingtin aggregation, primary screen, imaging, exon1htt(103Q)mCFP cells, high-content imaging (AID 483);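 note: compound exposure lasted 3 days before fixation; percent of the per-plate median nuclei count of sample wells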
# Details: exon1htt(103Q)mCFP cell line, aggregate imaging, at 2 µM; measured here: cell count, toxicity
Overview of reported nuclei count across a group of molecules:
Numeric only. Scale: %

Look over these answered cases.
Cc1cc(O)c(C(C)C)cc1N=C1CSC(=O)N1: 60.9
CN1CCc2c(sc3c2c(=O)n(-c2ccccc2)c2nnc(SCc4ccccc4)n32)C1: 116
O=C(C1CCCCC1)N1CC(=O)N2CCc3ccccc3C2C1 (centres undefined): 109
COc1cc(N2C(=O)CSC23C(=O)Nc2ccccc23)cc(OC)c1OC (centres undefined): 99.6
O=C(C1CC1(c1ccccc1)c1ccccc1)N1CCOCC1 (centres undefined): 80.6

Problem: Consider the molecule O=C(C1=C(O)C(=O)N(c2ncccn2)C1c1cccc(Cl)c1)c1ccco1 (centres undefined) and give its measured nuclei count.
Result: 97.7

Problem: Consider the molecule `Nc1ccc(S(=O)(=O)c2ccc(N)cc2)cc1` and give its measured nuclei count.
Result: 103

Problem: Consider the molecule CCCCCCCCNC(C)C(O)c1ccc(SC(C)C)cc1 (centres undefined) and give its measured nuclei count.
Result: 105

Problem: Consider the molecule `CCOc1nc(SCCOc2ccccc2)nc(N(C)C)n1` and give its measured nuclei count.
Result: 54

Problem: Consider the molecule `CCOC(=O)c1c(-c2cccs2)csc1NC(=O)CCCC(=O)O` and give its measured nuclei count.
Result: 110

Problem: Consider the molecule CCOC(=O)C1CCN(c2nc3ccccc3nc2C(C#N)C(=O)OCCOC)CC1 (centres undefined) and give its measured nuclei count.
Result: 81

Problem: Consider the molecule `CCCCN1C[C@H](O)[C@@H](O)[C@H](O)[C@H]1CO` and give its measured nuclei count.
Result: 109

Problem: Consider the molecule `O=C(NCc1ccco1)c1cnn2c(C(F)(F)F)cc(-c3ccco3)nc12` and give its measured nuclei count.
Result: 95.1

Problem: Consider the molecule `CC(=O)OCC(=O)[C@@]12OC3(CCCC3)O[C@@H]1C[C@H]1[C@@H]3CCC4=CC(=O)C=C[C@]4(C)[C@@]3(F)[C@@H](O)C[C@@]12C` and give its measured nuclei count.
Result: 51.6

Problem: Consider the molecule `Cc1cc(C)n(-c2nnc(C)n2/N=C/c2ccccc2F)n1` and give its measured nuclei count.
Result: 107

Problem: Consider the molecule `Cn1c(=O)c2c3c(sc2n2c(SCC(=O)c4ccc(Cl)cc4)nnc12)COC(C)(C)C3` and give its measured nuclei count.
Result: 105

Problem: Consider the molecule Cc1ccccc1C(OCCN(C)C)c1ccccc1 (centres undefined) and give its measured nuclei count.
Result: 89

Problem: Consider the molecule `CCCc1nc(N2CCOCC2)c(C#N)c2c1CCCC2` and give its measured nuclei count.
Result: 89.6

Problem: Consider the molecule `COc1ccc2c(c1)c(CC(=O)OCC(=O)O)c(C)n2C(=O)c1ccc(Cl)cc1` and give its measured nuclei count.
Result: 89.1

Problem: Consider the molecule `O=C(NCc1cccnc1)c1ccc(=O)oc1` and give its measured nuclei count.
Result: 103

Problem: Consider the molecule `CCSc1nnc(NC(=O)C(CC)(C(F)(F)F)C(F)(F)F)s1` and give its measured nuclei count.
Result: 106

Problem: Consider the molecule `c1ccc2c(CC3=NCCN3)cccc2c1` and give its measured nuclei count.
Result: 90.2

----------
# Assay Overview: inhibitors of E-selectin induction by TNFa, primary screen, imaging, HUVEC, immunofluorescence, MLSMR starter and 10KST1 sets (AID 487);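 for inhibition: signal is fraction of cell area covered by stained E-selectin grains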
# Details: HUVEC TNFalpha-induced E-selectin immunofluorescence imaging, at 2 µM; stronger effect = higher value
Property Measured: inhibition (%)
Numeric only. Scale: %

Look over these answered cases.
COc1ccc2[nH]c(C)c(C(=O)CN3CCc4cc(OC)c(OC)cc4C3)c2c1: 7.5
CN1CCN(/C=N/c2sc3c(c2C#N)CCCCC3)CC1: -74.7
CSc1nc2sc3c(c2c(=O)[nH]1)CCC(C)C3 (stereo unspecified): -109
CCN(CC)c1ccc2cc(-c3nnc(-c4ccncc4)o3)c(=O)oc2c1: -87.1
Cc1ccc2cc(CN(C(=O)c3ccco3)c3ccccc3)c(=O)[nH]c2c1: -134
O=C1C(CCS(=O)c2ccccc2)C(=O)N(c2ccccc2)N1c1ccccc1 (stereo unspecified): -95.5
COc1ccc(C2CNC(=O)C2)cc1OC1CCCC1 (stereo unspecified): -59.8
COc1ccc(-c2ncncc2-c2csc(C)n2)c(O)c1: -141
CSc1nc(N)nc(SCC(=O)CC(=O)OC(C)C)c1C#N: -118
Cc1nn(-c2ccccc2)c2c1C(c1ccc(F)cc1F)C(C#N)=C(N)O2 (stereo unspecified): 17.2

Problem: Consider the compound CN(C)C(CN1C(=O)C2CC=CCC2C1=O)c1cn(C)c2ccccc12 (stereo unspecified) and give its measured inhibition.
Result: -48.8

Problem: Consider the compound CCN(CC)CCCn1c(C)cc2c(c1=O)C(c1ccc(OC)c(OC)c1OC)C(C#N)=C(N)O2 (stereo unspecified) and give its measured inhibition.
Result: -23

Problem: Consider the compound CN1C(=O)CC(N2CCN(c3ccc(Cl)c(Cl)c3)CC2)C1=O (stereo unspecified) and give its measured inhibition.
Result: -80.8

Problem: Consider the compound `CC(=Nc1cccc(O)c1)c1sc2ccccc2c1O` and give its measured inhibition.
Result: -0.7

Problem: Consider the compound `COc1cc(C(=O)OCCN2CCCCC2)ccc1O` and give its measured inhibition.
Result: 38.8

Problem: Consider the compound `Cc1cc(C)nc(NC(=O)c2ccc(OC(C)C)cc2)n1` and give its measured inhibition.
Result: -53

Problem: Consider the compound `COc1ccc(CNc2oc(COc3ccccc3Cl)nc2C#N)cc1` and give its measured inhibition.
Result: -70.3

Problem: Consider the compound `N#CCc1nc2c3c4c(sc3ncn2n1)CCCC4` and give its measured inhibition.
Result: -12.1

Problem: Consider the compound `c1ccc(OCc2nn3c(C4CCCCC4)nnc3s2)cc1` and give its measured inhibition.
Result: -110

Problem: Consider the compound `Cc1cc(C)c(-n2c(O)c(C=NCCN3CCOCC3)c(=O)[nH]c2=O)c(C)c1` and give its measured inhibition.
Result: 19

Problem: Consider the compound `CC(=O)OCC(=O)[C@H]1CC[C@H]2[C@@H]3CCC4=CC(=O)CC[C@]4(C)[C@H]3CC[C@]12C` and give its measured inhibition.
Result: -142

Problem: Consider the compound `N#Cc1nc(-c2cccs2)oc1NCCN1CCOCC1` and give its measured inhibition.
Result: -60.7

Problem: Consider the compound `CCCSc1ccc2nc(NC(=O)OC)[nH]c2c1` and give its measured inhibition.
Result: -115

Problem: Consider the compound `Cc1cc(/C=c2/sc3nc4ccccc4n3c2=O)c(C)n1-c1ccccn1` and give its measured inhibition.
Result: -51.9

Problem: Consider the compound `COCCOC(=O)c1c(C)nc(SCC(=O)Nc2ccc(OC)cc2)c(C#N)c1-c1ccco1` and give its measured inhibition.
Result: -23.1

Problem: Consider the compound CSCCC(CO)NC(=O)OCc1ccccc1 (stereo unspecified) and give its measured inhibition.
Result: -130

Problem: Consider the compound `Cc1cnc(NC(=O)C2=C(O)c3ccccc3S(=O)(=O)N2C)s1` and give its measured inhibition.
Result: -46.4

Problem: Consider the compound COc1ccc2[nH]c(C)c(C(=O)CN3CC(C)OC(C)C3)c2c1 (stereo unspecified) and give its measured inhibition.
Result: -1

Problem: Consider the compound `COc1cc(=O)n2c(-c3ccccc3)csc2n1` and give its measured inhibition.
Result: -58.9

Problem: Consider the compound `CN1CCN(CC(=O)N2c3ccccc3C(=O)Nc3cccnc32)CC1` and give its measured inhibition.
Result: -81.3

Problem: Consider the compound CCOC(=O)NC(O)C(=O)c1cccs1 (stereo unspecified) and give its measured inhibition.
Result: -205

Problem: Consider the compound `c1cc2c(cc1C1=Nn3c(nnc3C3CCCCC3)SC1)OCO2` and give its measured inhibition.
Result: -52.3
